Experiment: in vitro
Conditions: rat, gh3-tre-luc cells, AC50 (uM) modified / 1000
Would you mind telling me the reported CC50 at 24 h of each entry?

Ask: # lookup: CC50 at 24 h of CC(=O)NC(Cc1ccccc1)C(=O)O (centres unmarked)
Reply: > 50 µM

Ask: Please give the measured CC50 at 24 h for this compound: CN(CCOc1ccc(NS(C)(=O)=O)cc1)CCc1ccc(NS(C)(=O)=O)cc1 [Dofetilide]
Reply: > 50 µM

Ask: CC50 at 24 h lookup needed for "Brc1c(NC2=NCCN2)ccc2nccnc12" , thanks.
Reply: > 50 µM

Ask: Form field: reported CC50 at 24 h of "O=S(=O)(O)c1ccc2cc(O)c(S(=O)(=O)O)cc2c1"
Reply: > 90 µM

Ask: Please look up its CC50 at 24 h: "O=[N+]([O-])c1ccc2[nH]cnc2c1"
Reply: > 90 µM

---

Would you mind telling me the reported CC50 at 24 h of each entry?
Experiment: in vitro
Conditions: rat, gh3-tre-luc cells, AC50 (uM) modified / 1000
Provide the reading as a plain figure in µM.

Ask: Requested read-out: CC50 at 24 h. Entry: "CCCCCCCCCCCSCC(=O)O"
Reply: 50.2

Ask: Sample CCC(C)N(C)C(=O)c1cc2ccccc2c(-c2ccccc2Cl)n1 (centres unmarked) — what was its CC50 at 24 h?
Reply: 48.6

Ask: Please look up its CC50 at 24 h: "O=C(O)CCCc1ccc(N(CCCl)CCCl)cc1"
Reply: 61

---

Tested on: GH3-TRE-Luc cell line
Settings: read-out: AC50 (uM) modified / 1000; Tox21_110001=Tox21_111203; viability, 1 nM T3 present, 24 h
measurement_label: CC50 (µM)
Answer format: numeric, µM implied, no suffix.

Ask: Form: Entry = "Nc1ccn([C@@H]2O[C@H](CO)[C@@H](O)[C@@H]2O)c(=O)n1" | System = GH3-TRE-Luc cell line | CC50 = ____
Reply: 0.708

---

Test: in vitro
Conditions: rat, gh3-tre-luc cells, AC50 (uM) modified / 1000, Tox21_110001=Tox21_202075; viability, 1 nM T3 present, 24 h
measurement_label: CC50 at 24 h

Ask: Fill in: CC50 at 24 h of "O=C(CCl)c1ccccc1" is ___
Reply: > 90 µM

---

Counter-ions that a name gives are not always drawn.
measurement_label: AC50 (µM)
I only need the number, in µM, no unit after it.

Ask: Checklist item: AC50 tested on GH3-TRE-Luc cell line, entry N=C1C=CC(=C(c2ccc(N)cc2)c2ccc(N)cc2)C=C1 [C.I. Basic Red 9 monohydrochloride] , value?
Reply: 8.8

Ask: Please tell me: AC50 of CCC(=C(CC)c1ccc(O)cc1)c1ccc(O)cc1 [(Z,E)-Diethylstilbestrol, reference compound] , system GH3-TRE-Luc cell line?
Reply: 12.2

Ask: Query for GH3-TRE-Luc cell line: what AC50 does the record show for COC(=O)C1=C(C)NC(C)=C(C(=O)OCCN2CCN(C(c3ccccc3)c3ccccc3)CC2)C1c1cccc([N+](=O)[O-])c1 (stereo not shown) [Manidipine dihydrochloride] ?
Reply: 9.06

Ask: Form field: AC50 recorded for CC[C@]12CCCN3CCc4c(n(c5ccccc45)C(=O)C1)[C@@H]32 [(-)-Eburnamonine] with GH3-TRE-Luc cell line (enter value)
Reply: 7.18
